- Test system: Ba/F3 cells expressing EGFR mutations
- assay details: Cell proliferation assay, Ba/F3 cells expressing EGFR mutations (CellTiter-Glo, 72 hours)
- Format: cell-based
- condition: BaF3 cells, EGFR DEL19 - C797S, read-out: GI50 DEL19 - C797S/BaF3
- Procedure: Biological Example 2: Cell Proliferation Assays Ba/F3 cells expressing EGFR mutations were seeded in 384-well plates at 5000 cells/well in RPMI1640 medium containing 1000 FBS. […] The assay plates were further incubated for 72 hours and the number of viable cells (G3) was measured. The percentage of proliferation was calculated as: […]=100×(G3 value of sample well−G0 value)/(G3 value of DMSO control−G0 value). […]

| compound | target entity | GI50 / nM |
| --- | --- | --- |
| COCCN(C)c1ccc2nc3n(c2c1)C12CCC(CN(CCOc4c(cnn4C)-c4cc(cc(C)n4)C(=O)N3)C1)C2 (single isomer, unassigned) [Example B46B] | Ba/F3 cells expressing EGFR mutations | 2 |
| Cc1cc2cc(n1)-c1cnn(C)c1OCCN1CC3CCC(C3)(C1)n1c(nc3ccc(N4CCC(N5CCN(C)CC5)CC4)cc31)NC2=O (single isomer, unassigned) [Example B59B] | Ba/F3 cells expressing EGFR mutations | 11 |
| Cc1cc2cc(n1)-c1cnn(C)c1OCCN1CC3CCC(C3)(C1)n1c(nc3ccc(N4CC[C@@H](N(C)C)C4)cc31)NC2=O (single isomer, unassigned) [Example B42B] | Ba/F3 cells expressing EGFR mutations | 2 |
| Cc1cc2cc(n1)-c1cnn(C)c1OCCN1CC3CCC(C3)(C1)n1c(nc3ccc(N4CCC5(CC4)CCN5C)cc31)NC2=O (single isomer, unassigned) [Example B54B] | Ba/F3 cells expressing EGFR mutations | 2 |
| Cc1cc2cc(n1)-c1cnn(C)c1OCCN1CC3CCC(C3)(C1)n1c(nc3ccc(N4CCN(C5COC5)CC4)cc31)NC2=O (single isomer, unassigned) [Example B58B] | Ba/F3 cells expressing EGFR mutations | 2 |
